The measurements presented in this section are drawn from PubChem BioAssay (NCATS).

Molecular target: Cellular tumor antigen p53 (Homo sapiens) (UniProt P04637)
Sequence (P04637 whole entry, looked up): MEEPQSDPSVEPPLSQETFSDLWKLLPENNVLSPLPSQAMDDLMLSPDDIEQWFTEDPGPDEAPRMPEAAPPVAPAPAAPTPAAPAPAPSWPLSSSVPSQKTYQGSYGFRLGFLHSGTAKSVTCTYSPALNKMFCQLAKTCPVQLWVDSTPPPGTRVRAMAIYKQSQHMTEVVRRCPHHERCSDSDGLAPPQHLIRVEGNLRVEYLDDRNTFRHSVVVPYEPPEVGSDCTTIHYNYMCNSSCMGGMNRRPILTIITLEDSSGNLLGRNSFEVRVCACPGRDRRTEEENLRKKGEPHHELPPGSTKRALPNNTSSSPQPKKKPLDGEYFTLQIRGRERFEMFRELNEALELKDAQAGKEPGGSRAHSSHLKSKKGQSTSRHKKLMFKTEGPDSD
Assay: Primary qHTS for small molecule compounds that upregulate eGFP-tagged delta133p53alpha (in N-terminal) cells. (AID 2060322);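 note: cells pre-induced with doxycycline then dosed without doxycycline; series mostly up to about 56 µM; 0% = DMSO vehicle and 100% = reference activator; nearly all actives have a fitted effect of over 75% in size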
Conditions: NCI-H358 eGFP-delta133p53alpha fluorescence, 24 h; active compounds read high
Text: Assay Development and Screening Technology National Center for Advancing Translational Sciences (NCATS), National Institute of Health (NIH), Rockville, Maryland Cellular senescence (CS) is one of the hallmarks of aging and age-related diseases. […] Here we report the development and validation of a cell-based quantitative high throughput screening (qHTS) assay in 1,536-well format. […]
Records with an inconclusive call do not appear.
assayEndpoint: activation (%)
Just the number in %, nothing appended.

Solved cases (5 shown):
molecule	assaySystem	measurementUnits	activation
O=C(c1cccc(Br)c1)N1CCC(N2CCCC2)CC1	Cellular tumor antigen p53 (Homo sapiens) (UniProt P04637)	%	-15.6
Cc1c(O)cccc1C(=O)N[C@@H](CSc1ccccc1)[C@H](O)CN1C[C@H]2CCCC[C@@H]2C[C@@H]1C(=O)NC(C)(C)C	Cellular tumor antigen p53 (Homo sapiens) (UniProt P04637)	%	-23
CN/C(=C\[N+](=O)[O-])NCCSCc1csc(CN(C)C)n1	Cellular tumor antigen p53 (Homo sapiens) (UniProt P04637)	%	-0.837
Cc1c(Cc2ccc3ccccc3n2)c2cc(F)ccc2n1CC(=O)O	Cellular tumor antigen p53 (Homo sapiens) (UniProt P04637)	%	-10
C[C@@H]1O[C@@H](O[C@H]2[C@H](O[C@H]3CC[C@@]4(C)C(CC[C@]5(C)C4C=C[C@]46OC[C@@]7(CCC(C)(C)C[C@H]74)[C@@H](O[C@@H]4O[C@@H](C)[C@H](O)[C@@H](O)[C@H]4O)C[C@]65C)[C@]3(C)CO)O[C@H](CO)[C@@H](O)[C@@H]2O[C@@H]2O[C@H](CO)[C@@H](O)[C@H](O)[C@H]2O)[C@H](O)[C@H](O)[C@H]1O (stereo partly drawn)	Cellular tumor antigen p53 (Homo sapiens) (UniProt P04637)	%	0

Asked: activation for C1CCC(C(CC2CCCCN2)C2CCCCC2)CC1 (stereo not drawn) ?
Given back: 21.8

Asked: Try C=C1C[C@]23C[C@H]1CC[C@H]2[C@]1(C)CCC[C@@]2(CO)C(=O)O[C@H]([C@H]21)[C@@H]3O next.
Given back: -6.11

Asked: Could you do the same for O=C(O)c1ccc(S(=O)(=O)N(Cl)Cl)cc1 , please?
Given back: 20.9

Asked: Ok, now CCOCCn1c(C2CCN(CCc3ccc(C(C)(C)C(=O)O)cc3)CC2)nc2ccccc21
Given back: -6.69

Asked: Would you mind doing Cc1nc(-c2cccnc2)sc1C(=O)Nc1ccccc1-c1cn2c(CN3CCOCC3)csc2n1 as well?
Given back: 17.9

Asked: Next molecule: COc1cc(C(=O)N2CCOCC2)cc(OC)c1OC
Given back: 20.9

Asked: Let us now turn to COC(=O)C1=C[C@@H](O)[C@@H](O)[C@H](O[C@@H]2O[C@H](COC(=O)/C=C/c3ccccc3)[C@@H](O)[C@H](O)[C@H]2O)C1
Given back: -3.05

Asked: Then O=C(N[C@@H]1CCCc2c1cnn2-c1ccc(F)cc1F)c1ccccn1 ?
Given back: 12.3

Asked: Cool, now COc1c(C)c2c(c(O)c1CC=C(C)CCC(=O)O)C(=O)OC2
Given back: -14.1

Asked: C=C[C@H]1[C@H](O[C@@H]2O[C@H](CO)[C@@H](O)[C@H](O)[C@H]2O)OC=C(C(=O)OC)[C@H]1C[C@@H]1c2cc(O)c(O)cc2CCN1C(C)=O ?
Given back: -6.11

Asked: Continue with CC(C)(CO)Cc1cc(C(C)(C)C)c(O)c(C(C)(C)C)c1
Given back: -20
